Assay: Selectivity index, ratio of IC50 for Trypanosoma brucei rhodesiense to IC50 for human KB cells
Format: toxicity
Conditions: read-out: Ratio IC50
selectivity ratio by entry:
Readout Label: selectivity ratio

* COc1cc2c(cc1OC)[C@@H]1[C@H](OC(C)=O)[C@@H](O)C[C@H]3CC[N+]([O-])(C2)[C@H]31 (some centres not stated) | > 16
* O[C@H]1[C@H]2c3cc4c(cc3CN3CC[C@H](C[C@@H]1O)[C@H]23)OCO4 | > 16

###

Tested on: Entamoeba histolytica
Assay: […] activity against Entamoeba histolytica
Assay type: functional, organism-based
IC50 by entry:
Readout Label: IC50 (µg/mL)

* Cc1ncc([N+](=O)[O-])n1CC(O)CCl (centres undefined) [ORNIDAZOLE] | 0.28
* CO[C@@H]1C=C[C@@]23c4cc5c(cc4CN(C[C@@H]2O)[C@H]3C1)OCO5 [(+)-HAEMANTHAMINE] | 0.75
* CO[C@H]1C=C[C@@]23c4cc5c(cc4CN(C[C@@H]2O)[C@H]3C1)OCO5 | 0.53
* O[C@H]1[C@H]2c3cc4c(cc3CN3CCC(=C[C@@H]1O)[C@H]23)OCO4 [LYCORINE] | 0.23
